Please find below IC50 data on FBXL10 (Homo sapiens (Human), UniProt Q8NHM5) compiled from the literature.

CON=Cc1ccnc(CNCCCN(C)C)c1
> 2500 nM
O=C(O)c1ccnc(-n2nccc2-c2ccc(F)cc2)c1
> 10000 nM
CCN(CC)CCCCNCc1cc(/C=N/CCO)ccn1
> 2500 nM
CN(CCn1cnc(-c2cc(C(=O)O)ccn2)c1)CC1CC1
100 to 1000 nM
Cc1ccccc1-c1ccc(S(=O)(=O)N2CCN=C2N2CCN(C3CCC3)CC2)cc1
0.077 nM
CCN1CCN(C2=NCCN2S(=O)(=O)c2cccc(C(F)(F)F)c2)CC1
6.99 nM
CC(N[C@@H](C)C(=O)NCc1ccccc1CO)c1cc(C(=O)O)ccn1 (stereo partly drawn)
250 to 2500 nM
Cc1ccc(COc2ccnn2-c2cc(C(=O)O)ccn2)cc1
1000 to 10000 nM

Task: What reported IC50 corresponds to `Clc1cccc(Cn2cnc(-c3cc(-c4nn[nH]n4)ccn3)c2)c1` on FBXL10 (Homo sapiens (Human), UniProt Q8NHM5)?
Result: ≤ 100 nM
